# credit: patent US5077281A

- test_method_notes: solubility
- Assay type: physicochemical
- experimental_context: 50 mg./5 ml. blood plasma corresponds to a 1% solution; read-out: solubility limit

{"molecule": "O=S1(=O)CCN(CN2CCS(=O)(=O)NC2)CN1 [taurolin]", "units_symbol": "µg/mL", "solubility": 10000}
